Listing of entries alongside the reported TD50.
- Assay method text: ulcerogenic activity in rats (DU50)
- Condition notes: rat, in vivo
Report the figure in mg/kg without appending any unit label.

Notebook: C=CCOc1ccc(CC(=O)O)cc1Cl [Compound V, 4-allyloxy-3-chlorophenylacetic acid, reference compound] , TD50 read as 214

Documented TD50 of O=C(Cc1ccccc1Nc1c(Cl)cccc1Cl)OC1OC(=O)c2ccccc21 (stereo not shown) [Compound VIA] : 26.1

Lab note: O=C(O)Cc1ccc(-c2ccccc2)cc1 [Compound VIII, 4-biphenylylacetic acid, reference compound] gave TD50 of 65.3

TD50 reported for this compound C=CCOc1ccc(CC(=O)OC2OC(=O)c3ccccc32)cc1Cl (stereo not shown) [Compound VA] : 380

So for CC(C)Cc1ccc(C(C)C(=O)OC2OC(=O)c3ccccc32)cc1 (stereo not shown) [Compound IA] , the logged TD50 turned out to be 144

Value of measured TD50 for the entry CC(C(=O)OC1OC(=O)c2ccccc21)c1ccc(N2Cc3ccccc3C2=O)cc1 (stereo not shown) [Compound IVA] : 116

Please fill in: TD50 reported for COc1ccc2cc(C(C)C(=O)OC3OC(=O)c4ccccc43)ccc2c1 (stereo not shown) [Compound IIA] = 133

---

- Assay method text: ulcerogenic activity in rats (DU50)
- Condition notes: rat, in vivo
# strict inequality: TD50 < 80 mg/kg yields TRUE, everything else yields FALSE

Does the reported TD50 of the following molecule sit strictly below 80 mg/kg? CC(C(=O)OC1OC(=O)c2ccccc21)c1cccc(C(=O)c2ccccc2)c1 (stereo not drawn) [Compound IIIA, phthalidyl 2-(3-benzoylphenyl)propionate]
TRUE

Here's an entry: O=C(Cc1ccc(-c2ccccc2)cc1)OC1OC(=O)c2ccccc21 (stereo not drawn) [Compound VIIIA, phtalidyl 4-biphenylylacetate] . Is its TD50 below 80 mg/kg?
FALSE

Below 80 mg/kg on TD50? Entry CC(C)Cc1ccc(C(C)C(=O)O)cc1 (stereo not drawn) [Compound I, 2-(4-isobutylphenyl)propionic acid, reference compound]
FALSE

Does O=C(CCC(=O)c1ccc(-c2ccccc2)cc1)OC1OC(=O)c2ccccc21 (stereo not drawn) have TD50 strictly under 80 mg/kg?
FALSE

Is TD50 strictly under 80 mg/kg for the entry CC(C(=O)O)c1ccc(N2Cc3ccccc3C2=O)cc1 (stereo not drawn) [Compound IV, reference compound] ?
TRUE
